- target system: Mu-type opioid receptor (Cavia porcellus, UniProt P97266)
- Sequence (P97266 whole entry): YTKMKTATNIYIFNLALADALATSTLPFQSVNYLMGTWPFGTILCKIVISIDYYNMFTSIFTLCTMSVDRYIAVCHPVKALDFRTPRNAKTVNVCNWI
- run description: Agonist activity at mu opioid receptor in guinea pig ileum assessed as inhibition of electrically-induced twitches
The entries below come with measured pIC50 values attached.
Here pIC50 is given on a logarithmic scale as minus log10 of the concentration in mol/L.

INSERT INTO results (item_smiles, observed) VALUES
  ('COc1ccc(C[C@H](N=C(N)N)C(=O)N2CCC[C@H]2C(=O)N[C@@H](Cc2c[nH]c3ccccc23)C(=O)N[C@@H](Cc2ccc(Cl)cc2)C(N)=O)cc1', 6.07);

Note: attention shifts to another entry.
Task: Requested field: pIC50. Item: `COc1ccc(C[C@H](N=C(N)N)C(=O)N2CCC[C@H]2C(=O)N[C@@H](Cc2c[nH]c3ccccc23)C(=O)N[C@@H](Cc2ccccc2)C(N)=O)cc1`
Output: 6.01
